// provenance: PubChem BioAssay AID1362

protocol.summary: growth inhibition of WT strain, primary screen, mitochondrial fusion inhibitor project, WT and mutant strains, chemical genetic (AID 1362)
test.context: mitochondrial fusion phenotypic screen, mutant strain inhibition; at 10 µM
Screen size: about 190,000 compounds; about 4,000 (2.1%) were called active. Many of the other results were omitted from the sample, so actives are more common in it than they were.
observed.property: inhibition (%)
Quick reminder: number only, in %, skip the unit.

Answered examples (6):
COC(=O)C1=C(N)Oc2c(oc(CO)cc2=O)C1c1c(F)cccc1Cl (stereo unspecified) :: -4.27
CC1CCN(c2ccc([N+](=O)[O-])cc2C(N)=O)CC1 :: -16.1
Cc1cc(C(=O)CCl)c(C)n1CC1COc2ccccc2O1 (stereo unspecified) :: 25.4
O=C(Nc1ccccc1C(=O)O)c1cc(S(=O)(=O)N2CCCCC2)cs1 :: -6
COc1ccc(Cc2n[nH]c(=S)n2NC(=O)Nc2ccc(C)cc2)cc1 :: 1.23
COc1ccc(OC)c(C(=O)c2coc3ccc(OC)cc23)c1 :: 15.4

Task: State the recorded inhibition for this entry: C/C(=N/Nc1ccc(Cl)cc1)c1cnnc(-c2ccccc2)n1
Result: 20.8

Task: State the recorded inhibition for this entry: O=C(COc1ccc(-c2ccccc2)cc1)NN=C1CCCC1
Result: -3.38

Task: State the recorded inhibition for this entry: O=C(CCCN1C(=O)/C(=C/c2ccccc2)SC1=S)Nc1ccc(O)cc1
Result: 6.5

Task: State the recorded inhibition for this entry: COc1ccc(OC)c(C(=O)c2coc3ccc(O)c(CN4CCOCC4)c23)c1
Result: -1.21

Task: State the recorded inhibition for this entry: O=C1c2ccccc2NC(c2ccccc2O)N1NS(=O)(=O)c1ccccc1 (stereo unspecified)
Result: -11.6

* * *

inhibition reference
protocol.summary: growth inhibition of WT strain, primary screen, mitochondrial fusion inhibitor project, WT and mutant strains, chemical genetic (AID 1362)
test.context: mitochondrial fusion phenotypic screen, mutant strain inhibition; at 10 µM
The campaign covered roughly 190,000 compounds. About 4,000 (2.1%) were called active. The entries come from a sample that favours actives as a whole.
Quick reminder: number only, in %, skip the unit.

Answered examples (3):
COc1ccccc1CCNC(=O)CSc1nnc2ccc(-c3cccnc3)nn12 :: 2.87
Cc1ccc(-n2nc3cc(Cl)c(NC(=O)c4ccco4)cc3n2)cc1 :: -7.45
Cc1ccc(NC(=S)NCc2ccccc2Cl)c(C)c1 :: -1.48

Task: State the recorded inhibition for this entry: O=S(=O)(c1ccc2c(c1)OCCO2)N1CCc2ccccc21
Result: -8.75

Task: State the recorded inhibition for this entry: O=C(Nc1nnc(SCc2ccc(Cl)cc2Cl)s1)C1COc2ccccc2O1 (centres undefined)
Result: 17.9

Task: State the recorded inhibition for this entry: CCS(=O)(=O)Nc1cccc(-c2cc(-c3ccccc3)c3cc(C)ccc3n2)c1
Result: -17.6

Task: State the recorded inhibition for this entry: COc1ccc(OC)c2c(N)c(C#N)c(C(F)(F)C(F)(F)F)nc12
Result: -8.43

* * *

inhibition reference
protocol.summary: growth inhibition of WT strain, primary screen, mitochondrial fusion inhibitor project, WT and mutant strains, chemical genetic (AID 1362)
test.context: mitochondrial fusion phenotypic screen, WT strain, growth inhibition; at 10 µM; stronger effect = higher value
Hit rate of the full screen: of about 190,000 compounds, about 4,000 (2.1%) were called active. The entries come from a sample that favours actives as a whole.

O=C(Nc1ccccc1Cl)/C(Cl)=C(\Cl)S(=O)c1ccccc1 (stereo unspecified) :: 95.8% (active)

Task: State the recorded inhibition for this entry: CCOC(=O)C1(Cc2cccc(OC)c2)CCN(C(C)CC(C)(C)O)CC1 (stereo unspecified)
Result: -0.94% (inactive)

Task: State the recorded inhibition for this entry: O=C(CN1CCCCC1)Nc1ccccc1Cl
Result: -11.8% (inactive)

Task: State the recorded inhibition for this entry: Cc1nnc(SCC(=O)N2CCc3ccccc3C2)s1
Result: 3.58% (inactive)
